// data source = patent EP1247803A2

- System Tested: EGFR (Homo sapiens, UniProt P00533)
- Construct: Add 7 ug A431 cell lysate per well (EGFR source); endogenous in cells; host or cells: A431
- Sequence (P00533 25-1210): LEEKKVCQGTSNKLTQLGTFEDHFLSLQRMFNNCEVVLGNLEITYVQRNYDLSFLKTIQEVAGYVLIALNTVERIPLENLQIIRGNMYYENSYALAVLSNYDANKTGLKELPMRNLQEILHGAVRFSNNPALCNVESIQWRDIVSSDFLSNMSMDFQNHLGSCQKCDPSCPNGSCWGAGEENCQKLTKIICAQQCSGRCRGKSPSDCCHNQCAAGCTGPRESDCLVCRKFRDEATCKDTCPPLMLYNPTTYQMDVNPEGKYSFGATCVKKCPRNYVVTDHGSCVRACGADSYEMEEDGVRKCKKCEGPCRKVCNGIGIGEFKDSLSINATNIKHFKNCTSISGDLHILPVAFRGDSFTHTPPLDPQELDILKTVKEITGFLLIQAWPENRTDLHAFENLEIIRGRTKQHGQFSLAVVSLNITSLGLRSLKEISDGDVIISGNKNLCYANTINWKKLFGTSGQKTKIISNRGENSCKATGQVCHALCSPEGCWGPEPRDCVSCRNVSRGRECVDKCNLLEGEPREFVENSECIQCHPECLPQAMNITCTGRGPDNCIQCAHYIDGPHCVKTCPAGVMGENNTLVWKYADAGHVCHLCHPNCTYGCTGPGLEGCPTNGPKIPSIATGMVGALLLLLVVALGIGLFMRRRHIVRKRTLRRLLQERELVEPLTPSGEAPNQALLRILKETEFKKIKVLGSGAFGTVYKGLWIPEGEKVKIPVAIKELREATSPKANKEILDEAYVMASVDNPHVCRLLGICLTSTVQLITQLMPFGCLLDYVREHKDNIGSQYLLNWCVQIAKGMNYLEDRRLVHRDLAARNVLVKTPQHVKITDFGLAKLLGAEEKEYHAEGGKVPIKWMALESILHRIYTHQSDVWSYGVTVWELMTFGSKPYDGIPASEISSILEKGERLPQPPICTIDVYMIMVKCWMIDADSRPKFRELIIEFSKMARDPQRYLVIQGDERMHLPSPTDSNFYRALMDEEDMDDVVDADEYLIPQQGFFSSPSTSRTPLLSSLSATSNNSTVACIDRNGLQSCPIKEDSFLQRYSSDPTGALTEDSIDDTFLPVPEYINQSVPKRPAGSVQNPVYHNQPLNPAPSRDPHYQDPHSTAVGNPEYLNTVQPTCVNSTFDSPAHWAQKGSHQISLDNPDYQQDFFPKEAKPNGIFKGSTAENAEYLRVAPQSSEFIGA
- Assay Info: EGFR ELISA assay (in vitro kinase activity, EGFR captured from A431 cell lysate)
- Type: biochemical
- Set-up: concentration or dose not given beside the values
- Description: To provide a consistent method for measuring the in vitro kinase activity of the EGFR in an Enzyme-linked immunosorbent assay (Elisa). Scope. The following protocol describes the procedures used to analyze protein tyrosine kinase activity on the EGFR in an Elisa. The procedure also describes the protocol for the initial screening of drugs for inhibition or activation of protein tyrosine kinase activity. Reagents and Supplies. • 1. […]
Give Biochem EGFR %Inhibition for every item shown.
Answers are plain numbers, in %.

Illustrative cases are given below, each with its answer.
[
  {
    "Compound": "Cc1cc(C=C2C(=O)Nc3ccc(S(=O)(=O)N4CCOCC4)cc32)sc1C [10721/F04]",
    "Biochem EGFR %Inhibition / %": 0.0
  },
  {
    "Compound": "COc1ccc(OC)c(C=C2C(=O)Nc3ccc(CCCl)cc32)c1 [10728/G02]",
    "Biochem EGFR %Inhibition / %": -10.2
  }
]

Provide each entry's Biochem EGFR %Inhibition from the list below.
1. COc1cc(N(C)C)ccc1C=C1C(=O)Nc2ccc(I)cc21 [10728/B05]
2. O=C1Nc2c(Br)cc(Br)cc2C1=Cc1cc2c3c(c1O)CCCN3CCC2 [10724/A05]
3. Cc1cc(C=C2C(=O)Nc3ccc(CCCl)cc32)cc(C)c1O [10722/G07]

1: 26.9; 2: 20.3; 3: -32.5

Provide each entry's Biochem EGFR %Inhibition from the list below.
1. O=C1Nc2ccc(S(=O)(=O)N3CCOCC3)cc2C1=Cc1coc2ccccc2c1=O [10727/F07]
2. CNS(=O)(=O)c1ccc2c(c1)C(=Cc1c(O)cc(O)cc1O)C(=O)N2 [10722/D03]
3. Cc1cc2occ(C=C3C(=O)Nc4ccc(S(=O)(=O)N5CCOCC5)cc43)c(=O)c2cc1C [10731/F03]

1: -8.9; 2: 31.0; 3: 8.4
